- system_tested: PAR4 (Homo sapiens (Human))
- Sequence (Q96RI0 18-385): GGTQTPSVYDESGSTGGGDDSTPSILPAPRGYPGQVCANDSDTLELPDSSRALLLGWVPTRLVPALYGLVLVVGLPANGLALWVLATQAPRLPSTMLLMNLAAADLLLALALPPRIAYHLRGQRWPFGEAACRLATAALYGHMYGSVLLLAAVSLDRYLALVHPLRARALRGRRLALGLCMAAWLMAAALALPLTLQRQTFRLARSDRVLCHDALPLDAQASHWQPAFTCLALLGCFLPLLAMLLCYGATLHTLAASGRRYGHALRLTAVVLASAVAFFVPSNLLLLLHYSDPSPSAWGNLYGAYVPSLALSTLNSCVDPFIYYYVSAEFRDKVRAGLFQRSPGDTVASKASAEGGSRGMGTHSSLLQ
- test_description: FLIPR assay in PAR4-expressing HEK293 cells (PAR4 antagonist activity, calcium mobilization)
- Type: cell-based
- particulars: H-Ala-Phe(4-F)-Pro-Gly-Trp-Leu-Val-Lys-Asn-Gly-NH2-induced calcium mobilization
- From the text: The FLIPR assay is an exemplary in vitro assay for measuring the activity of the PAR4 antagonists of the present invention. In this assay, intracellular calcium mobilization is induced in PAR4 expressing cells by a PAR4 agonist and calcium mobilization is monitored. See, e.g., Example A. […]
This section presents compounds with their documented EC50 values.
// return numeric value only (unit: pM, not printed)

COc1cc(OCc2csc(C3(c4cccc(Cl)c4)CCOCC3)n2)c2cc(-c3cn4nc(OC)sc4n3)oc2c1    620
COc1cc(OCc2nc(-c3cccc(CO)c3)sc2C)c2cc(-c3cn4nc(C)ccc4n3)oc2c1    1300

Q: Recall and state the measured EC50 for COc1cc(OCc2csc(-c3cccnc3)n2)c2cc(-c3cn4nc(OC)sc4n3)oc2c1 [Example 82] .
Ans: 670
